- Tested on: Caco-2 monolayer
- test.method.notes: Caco-2 Permeability Assay
- Type: in vitro ADME, human
- condition.set: Caco-2 monolayer
experimental.endpoint: Caco-2 Papp

• CC(C)OCCn1c(=S)n(COC(=O)CCCOC(=O)[C@H](N)C(C)C)c(=O)c2c1ccn2COC(=O)CCCOC(=O)[C@H](N)C(C)C.O=C(O)C(F)(F)F.O=C(O)C(F)(F)F = <0.628 ×10⁻⁶ cm/s
• CC(C)OCCn1c(SCOC(=O)N(C)Cc2ccccc2)nc(=O)c2c1ccn2COC(=O)N(C)Cc1ccccc1.O=C(O)C(F)(F)F = 30.4 ×10⁻⁶ cm/s
• CC(C)OCCn1c(=S)[nH]c(=O)c2c1ccn2COC(=O)CCCCNC(=O)[C@@H]1CCCN1C(N)=O.O=C(O)C(F)(F)F = 0.217 ×10⁻⁶ cm/s

---

- test.method.notes: Caco-2 Permeability Assay
- Type: in vitro ADME, human
- condition.set: human, pH 7.4; Caco-2 monolayer
experimental.endpoint: Papp at 90 min, 10 µM (×10⁻⁶ cm/s)

- CC(C)OCCn1c(=S)[nH]c(=O)c2c1ccn2COC(=O)CCCCNC(=O)[C@H](Cc1ccc(O)cc1)NC(=O)OC(C)(C)C.O=C(O)C(F)(F)F: 2.28

---

- test.method.notes: Stability in Simulated Gastric Fluid (SGF)
- Type: in vitro ADME
- Design: key: % parent compound remaining relative to 0-minute sample
- condition.set: % remaining at 1 h; SGF with pepsin pH 1.2, 2 μg/mL, 37° C.
Rule: measured SGF below 90% gets Met; anything equal to or greater than 90% gets Not met.

• CC(C)OCCn1c(=S)[nH]c(=O)c2c1ccn2COC(=O)CCNC(=O)OC(C)(C)C = Met
• COC(=O)[C@H](CCCCNC(=O)[C@@H](NC(=O)OC(C)(C)C)C(C)C)NC(=O)OCn1ccc2c1c(=O)[nH]c(=S)n2CCOC(C)C = Met
• CC(C)OCCn1c(=S)n(COC(=O)c2ccccc2)c(=O)c2c1ccn2COC(=O)c1ccccc1 = Not met
• CC(C)OCCn1c(=S)[nH]c(=O)c2c1ccn2COC(=O)CCCCNC(=O)OC(C)(C)C = Met
• COCCOCCN(C)C(=O)OCSc1nc(=O)c2[nH]ccc2n1CCOC(C)C = Not met

---

- test.method.notes: Plasma Stability
- Assay type: in vitro ADME, human
- condition.set: human plasma, at 1 h
experimental.endpoint: human Plasma stability (% remaining)

• Cc1cccc(OC(=O)OCn2ccc3c2c(=O)[nH]c(=S)n3CCOC(C)C)c1 = 1
• CCOC(=O)n1ccc2c1c(=O)[nH]c(=S)n2CCOC(C)C = 2
• Cc1ccccc1N(C)C(=O)OCSc1nc(=O)c2c(ccn2COC(=O)N(C)c2ccccc2C)n1CCOC(C)C = 99
• Cc1ccc(OC(=O)OCn2ccc3c2c(=O)[nH]c(=S)n3CCOC(C)C)cc1 = 1
• Cc1ccccc1N(C)C(=O)OCSc1nc(=O)c2[nH]ccc2n1CCOC(C)C = 81
• CC(C)COC(=O)n1ccc2c1c(=O)[nH]c(=S)n2CCOC(C)C = 2
• COc1ccc(N(C)C(=O)OCSc2nc(=O)c3[nH]ccc3n2CCOC(C)C)cc1 [Example 241] = 100
• Cc1cccc(N(C)C(=O)OCSc2nc(=O)c3[nH]ccc3n2CCOC(C)C)c1 = 63
• CC(C)OCCn1c(=S)[nH]c(=O)c2c1ccn2COC(=O)Oc1ccccc1F = 1
• CC(C)OCCn1c(SCOC(=O)N(C)c2ccccc2Cl)nc(=O)c2[nH]ccc21 = 83
• Cc1cccc(N(C)C(=O)OCSc2nc(=O)c3c(ccn3COC(=O)N(C)c3cccc(C)c3)n2CCOC(C)C)c1 = 99
• CC(C)OCCn1c(=S)[nH]c(=O)c2c1ccn2C(=O)OC(C)C = 0
• CC(C)OCCn1c(SCOC(=O)N(C)c2ccccc2F)nc(=O)c2[nH]ccc21 = 85
• COC(=O)n1ccc2c1c(=O)[nH]c(=S)n2CCOC(C)C = 2
• Cc1ccc(N(C)C(=O)OCSc2nc(=O)c3[nH]ccc3n2CCOC(C)C)cc1 = 96
• CC(C)OCCn1c(=S)[nH]c(=O)c2c1ccn2COC(=O)N(C)c1ccccc1Cl = 100
• Cc1ccccc1N(C)C(=O)OCn1ccc2c1c(=O)[nH]c(=S)n2CCOC(C)C = 96

---

- test.method.notes: Stability in Simulated Intestinal Fluid (SIF)
- Assay type: in vitro ADME
- Parameters: key: % parent compound remaining relative to 0-minute sample
- condition.set: simulated intestinal fluid, remaining at 1 h
The entries below come with measured SIF values attached.
experimental.endpoint: SIF (% remaining)

• CC(C)OCCn1c(=S)[nH]c(=O)c2c1ccn2COC(=O)CCCOC(=O)[C@H](N)C(C)C = 25
• CC(C)OCCn1c(SCOC(=O)N(C)CCOCCN)nc(=O)c2c1ccn2COC(=O)N(C)CCOCCN.O=C(O)C(F)(F)F.O=C(O)C(F)(F)F = 99
• CC(C)OCCn1c(SCOC(=O)N(C)CCOCCNC(=O)[C@H](N)C(C)C)nc(=O)c2[nH]ccc21.O=C(O)C(F)(F)F = 70
• CC(C)OCCn1c(=S)[nH]c(=O)c2c1ccn2COC(=O)OCCOCCN.O=C(O)C(F)(F)F = 3
• CC(C)OCCn1c(SCOC(=O)CCCOC(=O)[C@@H](Cc2ccccc2)NC(=O)OC(C)(C)C)nc(=O)c2c1ccn2COC(=O)CCCOC(=O)[C@@H](Cc1ccccc1)NC(=O)OC(C)(C)C = 18
• CC(C)OCCn1c(=S)[nH]c(=O)c2c1ccn2COC(=O)CCCOC(=O)[C@H](N)Cc1ccccc1.O=C(O)C(F)(F)F = 2

---

- test.method.notes: Stability in Simulated Intestinal Fluid (SIF)
- Type: in vitro ADME
- Set-up: key: % parent compound remaining relative to 0-minute sample
- condition.set: simulated intestinal fluid, remaining at 1 h
Quick reference: SIF of the listed items.
experimental.endpoint: SIF (% remaining)

- CSCC[C@H](NC(=O)OC(C)(C)C)C(=O)OCCCCC(=O)OCn1ccc2c1c(=O)[nH]c(=S)n2CCOC(C)C: 9
- CC(C)OCCn1c(=S)[nH]c(=O)c2c1ccn2COC(=O)CCCOC(=O)[C@@H](Cc1ccccc1)NC(=O)OC(C)(C)C: 9
- CC(C)OCCn1c(SCOC(=O)OCCOCCNC(=O)OC(C)(C)C)nc(=O)c2[nH]ccc21: 1
- CC(C)OCCn1c(=S)[nH]c(=O)c2c1ccn2COC(=O)CCCOC(=O)[C@H](NC(=O)OC(C)(C)C)C(C)C: 100
- CC(C)OCCn1c(=S)n(COC(=O)CCCOC(=O)[C@H](NC(=O)OC(C)(C)C)C(C)C)c(=O)c2c1ccn2COC(=O)CCCOC(=O)[C@H](NC(=O)OC(C)(C)C)C(C)C: 41
- CC(C)C[C@@H](NC(=O)OC(C)(C)C)C(=O)OCCCCC(=O)OCn1c(=O)c2c(ccn2COC(=O)CCCCOC(=O)[C@@H](CC(C)C)NC(=O)OC(C)(C)C)n(CCOC(C)C)c1=S: 8

---

- test.method.notes: Stability in Simulated Gastric Fluid (SGF)
- Type: in vitro ADME
- Design: key: % parent compound remaining relative to 0-minute sample
- condition.set: % remaining at 1 h; SGF with pepsin pH 1.2, 2 μg/mL, 37° C.
experimental.endpoint: SGF

* CC(C)OCCn1c(=S)[nH]c(=O)c2c1ccn2S(=O)(=O)c1ccccc1 | 100%
* CC(C)OCCn1c(=S)[nH]c(=O)c2c1ccn2COC(N)=O | 82%
* COCCOCCOC(=O)OCn1ccc2c1c(=O)[nH]c(=S)n2CCOC(C)C | 95%
* CC(C)OCCn1c(=S)n(COCC[Si](C)(C)C)c(=O)c2c1ccn2COCC[Si](C)(C)C | 98%
* CC(C)OCCn1c(SCOCC[Si](C)(C)C)nc(=O)c2c1ccn2COCC[Si](C)(C)C | 35%
* CC(C)OCCn1c(SCOC(=O)N(C)c2ccccc2)nc(=O)c2[nH]ccc21 | 99% remaining
* CC(C)OCCn1c(=S)[nH]c(=O)c2c1ccn2C(C)OC(=O)c1ccccc1 (centres unmarked) | 63%
* COc1ccc(CSc2nc(=O)c3[nH]ccc3n2CCOC(C)C)cc1 | 37%
* CC(C)OCCn1c(SCOC(=O)OC(C)C)nc(=O)c2c1ccn2COC(=O)OC(C)C | 98% remaining
* CC(C)OCCn1c(=S)[nH]c(=O)c2c1ccn2COC(=O)N[C@H](C(=O)O)C(C)C | 94%
* CC(C)OCCn1c(=S)[nH]c(=O)c2c1ccn2COC(=O)CCCCCCC(=O)OCCl | 74%
* CC(C)OCCn1c(=S)n2c(=O)c3c1ccn3COC(=O)CCCCCCC(=O)OC2 | 99%
* CC(C)OCCn1c(=S)[nH]c(=O)c2c1ccn2COC(=O)[C@@H]1CCC(=O)N1C(=O)OC(C)(C)C | 78%
* CC(C)OCCn1c2nc(=O)c3c1ccn3COC(=O)CCC(=O)N1CCC(CC1)C(=O)OCS2 | 100% remaining
* CC(C)OCCn1c(=S)[nH]c(=O)c2c1ccn2C(C)OC(=O)OC(C)C (centres unmarked) | 1% remaining
* CC(C)OCCn1c(=S)n(COC(=O)C(C)(C)C)c(=O)c2c1ccn2COC(=O)C(C)(C)C | 62%
* CC(C)OCCn1c(=S)[nH]c(=O)c2c1ccn2COC(=O)CCNC(=O)CNC(=O)OC(C)(C)C | 100%
